# ASSAYED_SYSTEM: Human COX-1 (Homo sapiens, UniProt P23219)
# Construct: Human blood (≈50 mL) from male or female donors who had not received any aspirin or NSAIDs for 14 days was collected; endogenous in cells; host or cells: human whole blood from donors, heparinised, stimulated with calcium ionophore A23187
# Sequence (P23219 24-599): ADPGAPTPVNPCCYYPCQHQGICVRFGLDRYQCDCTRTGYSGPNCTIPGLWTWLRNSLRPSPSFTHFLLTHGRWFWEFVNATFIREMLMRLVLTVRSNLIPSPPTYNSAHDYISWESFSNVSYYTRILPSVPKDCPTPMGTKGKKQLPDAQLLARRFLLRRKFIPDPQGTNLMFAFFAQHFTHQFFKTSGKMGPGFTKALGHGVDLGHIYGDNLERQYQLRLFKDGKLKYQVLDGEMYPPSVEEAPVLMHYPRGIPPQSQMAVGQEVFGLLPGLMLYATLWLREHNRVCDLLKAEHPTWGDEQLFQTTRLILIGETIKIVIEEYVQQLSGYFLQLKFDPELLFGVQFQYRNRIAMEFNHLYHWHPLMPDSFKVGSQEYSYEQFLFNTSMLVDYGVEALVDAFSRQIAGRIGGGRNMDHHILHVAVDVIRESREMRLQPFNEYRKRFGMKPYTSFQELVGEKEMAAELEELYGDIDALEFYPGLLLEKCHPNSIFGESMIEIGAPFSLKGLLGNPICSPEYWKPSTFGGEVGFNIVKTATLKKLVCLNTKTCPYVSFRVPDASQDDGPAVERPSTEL
# TEST: COX-1 enzyme activity in human whole blood (A23187-stimulated, thromboxane B2 EIA)
# Assay type: cell-based
# RECORDED_CONDITIONS: 100 μM test compound
Decision: inhibition at 100 µM >= 60% yields T, all other cases yield F.

Example entries begin here.
INSERT INTO assay_data (molecule, category_label) VALUES
  ('CS(=O)(=O)c1ccc(-c2cc(CCCO)nn2CC2CCCCC2)cc1 [Example 5b]', 'T'),
  ('CS(=O)(=O)c1ccc(-c2cc(C(F)(F)F)cnc2C(C#N)c2ccccc2)cc1 (centres unmarked) [Example 9b]', 'F'),
  ('CS(=O)(=O)c1ccc(-c2cc(CO)nn2CC2CCCCC2)cc1 [Example 1g]', 'T'),
  ('COC(=O)c1cc(-c2ccc(S(C)(=O)=O)cc2)n(Cc2ccccc2)n1 [Example 8]', 'F');

Confirm if inhibition at 100 µM reported for the molecule CS(=O)(=O)c1ccc(-c2cc(/C=C/CO)nn2CC2CCCCC2)cc1 [Example 4d] is 60% or above.
F

---

# ASSAYED_SYSTEM: Human COX-1 (Homo sapiens, UniProt P23219)
# Construct: Human blood (≈50 mL) from male or female donors who had not received any aspirin or NSAIDs for 14 days was collected; endogenous in cells; host or cells: human whole blood from donors, heparinised, stimulated with calcium ionophore A23187
# TEST: COX-1 enzyme activity in human whole blood (A23187-stimulated, thromboxane B2 EIA)
# Type: cell-based
# RECORDED_CONDITIONS: 100 μM test compound
The label depends only on inhibition at 100 µM: YES if it is at least 20%, NO if it is smaller.

These solved cases illustrate the format of a correct answer.
INSERT INTO results (compound, assayed_system, category_label) VALUES
  ('CS(=O)(=O)c1ccc(-c2cc(/C=C/CO[N+](=O)[O-])nn2CC2CCCCC2)cc1 [Example 4e]', 'Human COX-1 (Homo sapiens, UniProt P23219)', 'YES'),
  ('CS(=O)(=O)c1ccc(-c2cc(CO[N+](=O)[O-])nn2Cc2ccccc2)cc1 [Example 3d]', 'Human COX-1 (Homo sapiens, UniProt P23219)', 'YES'),
  ('CS(=O)(=O)c1ccc(-c2cc(C(F)(F)F)cnc2C(=O)c2ccccc2)cc1 [Example 9a]', 'Human COX-1 (Homo sapiens, UniProt P23219)', 'YES'),
  ('CS(=O)(=O)c1ccc(-c2cc(CO[N+](=O)[O-])nn2CC2CCCCC2)cc1 [Example 1h]', 'Human COX-1 (Homo sapiens, UniProt P23219)', 'YES'),
  ('CS(=O)(=O)c1ccc(-c2cc(COCCO[N+](=O)[O-])nn2CC2CCCCC2)cc1 [Example 2f]', 'Human COX-1 (Homo sapiens, UniProt P23219)', 'YES'),
  ('CS(=O)(=O)c1ccc(-c2ncccc2C(=O)c2cccc(F)c2)cc1 [Example 10c]', 'Human COX-1 (Homo sapiens, UniProt P23219)', 'NO'),
  ('CCOC(=O)c1cccc(C(=O)c2cccnc2-c2ccc(S(C)(=O)=O)cc2)c1 [Example 12b]', 'Human COX-1 (Homo sapiens, UniProt P23219)', 'YES'),
  ('CS(=O)(=O)c1ccc(-c2cc(COCCO)nn2CC2CCCCC2)cc1 [Example 2e]', 'Human COX-1 (Homo sapiens, UniProt P23219)', 'YES'),
  ('C=Cc1cc(-c2ccc(S(C)(=O)=O)cc2)n(CC2CCCCC2)n1 [Example 6b]', 'Human COX-1 (Homo sapiens, UniProt P23219)', 'YES'),
  ('CS(=O)(=O)c1ccc(-c2cc(CO)nn2Cc2ccccc2)cc1 [Example 3c]', 'Human COX-1 (Homo sapiens, UniProt P23219)', 'YES');

Confirm if inhibition at 100 µM reported for the compound CS(=O)(=O)c1ccc(-c2ncccc2C(=O)c2ccccn2)cc1 [Example 11b] is 20% or above.
NO

Assess whether reported inhibition at 100 µM for CS(=O)(=O)c1ccc(-c2cc(CCCO[N+](=O)[O-])nn2CC2CCCCC2)cc1 [Example 5c] sits at 20% or higher.
YES

---

# ASSAYED_SYSTEM: Human COX-2 (Homo sapiens, UniProt P35354)
# Construct: Human blood (≈50 mL) from male or female donors who had not received any aspirin or NSAIDs for 14 days was collected; endogenous in cells; host or cells: human whole blood from donors, heparinised, COX-2 induced with E. coli LPS
# Sequence (P35354 18-604): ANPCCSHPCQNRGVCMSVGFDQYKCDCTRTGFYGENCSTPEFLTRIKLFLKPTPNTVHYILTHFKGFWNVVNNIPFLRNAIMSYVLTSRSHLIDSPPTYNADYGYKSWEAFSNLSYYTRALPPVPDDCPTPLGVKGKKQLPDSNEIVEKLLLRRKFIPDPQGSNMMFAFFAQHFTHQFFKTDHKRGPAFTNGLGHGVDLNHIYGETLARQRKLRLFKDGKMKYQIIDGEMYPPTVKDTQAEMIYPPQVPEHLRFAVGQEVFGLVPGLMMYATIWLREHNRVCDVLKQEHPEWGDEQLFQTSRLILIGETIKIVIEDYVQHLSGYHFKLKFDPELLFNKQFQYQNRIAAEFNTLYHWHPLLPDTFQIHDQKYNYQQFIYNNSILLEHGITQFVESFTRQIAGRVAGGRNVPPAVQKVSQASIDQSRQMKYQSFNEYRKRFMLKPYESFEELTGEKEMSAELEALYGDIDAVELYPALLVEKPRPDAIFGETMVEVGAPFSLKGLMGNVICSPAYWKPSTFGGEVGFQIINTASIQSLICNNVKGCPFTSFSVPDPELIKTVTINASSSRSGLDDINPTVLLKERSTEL
# TEST: COX-2 enzyme activity in human whole blood (LPS-induced, thromboxane B2 EIA)
# Format: cell-based
# RECORDED_CONDITIONS: 1 μM test compound
METRIC: inhibition at 1 µM
Reply with a number, then the unit it belongs to.

Worked set:
INSERT INTO measurements (compound, endpoint_value) VALUES
  ('CS(=O)(=O)c1ccc(-c2cc(CCCO)nn2CC2CCCCC2)cc1', '45%'),
  ('CS(=O)(=O)c1ccc(-c2cc(COCCO)nn2CC2CCCCC2)cc1', '25%'),
  ('C=Cc1cc(-c2ccc(S(C)(=O)=O)cc2)n(CC2CCCCC2)n1', '70%'),
  ('CS(=O)(=O)c1ccc(-c2cc(/C=C/CO)nn2CC2CCCCC2)cc1', '25%');

Give inhibition at 1 µM for CS(=O)(=O)c1ccc(-c2cc(CO[N+](=O)[O-])nn2Cc2ccccc2)cc1 tested on Human COX-2 (Homo sapiens, UniProt P35354).
20%

Give inhibition at 1 µM for this entry on Human COX-2 (Homo sapiens, UniProt P35354): CS(=O)(=O)c1ccc(-c2cc(CCCO[N+](=O)[O-])nn2CC2CCCCC2)cc1
75%

---

# ASSAYED_SYSTEM: Human COX-2 (Homo sapiens)
# Construct: Human blood (≈50 mL) from male or female donors who had not received any aspirin or NSAIDs for 14 days was collected; endogenous in cells; host or cells: human whole blood from donors, heparinised, COX-2 induced with E. coli LPS
# TEST: COX-2 enzyme activity in human whole blood (LPS-induced, thromboxane B2 EIA)
# Type: cell-based
# RECORDED_CONDITIONS: 10 μM test compound
METRIC: inhibition at 10 µM (%)
Report only the number, with the unit % understood.

Field: example entries. Status: answers known.
INSERT INTO results (molecule, value_units, endpoint_value) VALUES
  ('CS(=O)(=O)c1ccc(-c2cc(CCCO)nn2CC2CCCCC2)cc1 [Example 5b]', '%', 90),
  ('CS(=O)(=O)c1ccc(-c2cc(COCCO)nn2CC2CCCCC2)cc1 [Example 2e]', '%', 65);

Here is the next item to consider.
Give me measured inhibition at 10 µM, please, for this molecule: CS(=O)(=O)c1ccc(-c2cc(/C=C/CO)nn2CC2CCCCC2)cc1 [Example 4d]
45

---

Below is a list of entries, each paired with its recorded melting point value.

INSERT INTO measurements (compound, metric, endpoint_value) VALUES
  ('CCOC(=O)c1cccc(C(=O)c2cccnc2-c2ccc(S(C)(=O)=O)cc2)c1 [Example 12b]', 'melting point', '125 to 132 °C'),
  ('CS(=O)(=O)c1ccc(-c2cc(CO[N+](=O)[O-])nn2Cc2ccccc2)cc1', 'melting point', '93 to 94 °C'),
  ('COC(=O)c1cc(-c2ccc(S(C)(=O)=O)cc2)n(Cc2ccccc2)n1', 'melting point', '142 to 143 °C'),
  ('CS(=O)(=O)c1ccc(-c2cc(CO[N+](=O)[O-])nn2CC2CCCCC2)cc1', 'melting point', '98 to 99 °C'),
  ('CS(=O)(=O)c1ccc(-c2ncccc2C(=O)c2ccccn2)cc1 [Example 11b]', 'melting point', '143 to 147 °C'),
  ('CS(=O)(=O)c1ccc(-c2cc(C(F)(F)F)cnc2C(=O)c2ccccc2)cc1', 'melting point', '141 to 142 °C'),
  ('CS(=O)(=O)c1ccc(-c2cc(/C=C/CO[N+](=O)[O-])nn2CC2CCCCC2)cc1', 'melting point', '44 to 47 °C'),
  ('CS(=O)(=O)c1ccc(-c2cc(CCCO[N+](=O)[O-])nn2CC2CCCCC2)cc1', 'melting point', '76 to 77 °C');

Here's the next entry for you.
Check the records and state melting point for C=Cc1cc(-c2ccc(S(C)(=O)=O)cc2)n(CC2CCCCC2)n1
136 to 138 °C

---

# ASSAYED_SYSTEM: Human COX-2 (Homo sapiens, UniProt P35354)
# Construct: Human blood (≈50 mL) from male or female donors who had not received any aspirin or NSAIDs for 14 days was collected; endogenous in cells; host or cells: human whole blood from donors, heparinised, COX-2 induced with E. coli LPS
# TEST: COX-2 enzyme activity in human whole blood (LPS-induced, thromboxane B2 EIA)
# Type: cell-based
# RECORDED_CONDITIONS: 1 μM test compound
METRIC: inhibition at 1 µM (%)
Your answer should be a plain number; it is taken to be in %.

Worked examples, 3 compounds total:
INSERT INTO assay_data (compound, value_units, endpoint_value) VALUES
  ('CS(=O)(=O)c1ccc(-c2cc(CO)nn2CC2CCCCC2)cc1 [Example 1g]', '%', 0),
  ('CS(=O)(=O)c1ccc(-c2cc(CO[N+](=O)[O-])nn2CC2CCCCC2)cc1 [Example 1h]', '%', 10),
  ('COC(=O)c1cc(-c2ccc(S(C)(=O)=O)cc2)n(Cc2ccccc2)n1 [Example 8]', '%', 15);

Return value of inhibition at 1 µM for input CS(=O)(=O)c1ccc(-c2ncccc2C(=O)c2cccc(F)c2)cc1 [Example 10c] , no commentary.
55

Indicate the recorded inhibition at 1 µM value for this compound: CS(=O)(=O)c1ccc(-c2cc(/C=C/CO[N+](=O)[O-])nn2CC2CCCCC2)cc1 [Example 4e]
35

Respond only with inhibition at 1 µM recorded for CCOC(=O)c1cccc(C(=O)c2cccnc2-c2ccc(S(C)(=O)=O)cc2)c1 [Example 12b]
10

Determine its reported inhibition at 1 µM: CS(=O)(=O)c1ccc(-c2cc(C(F)(F)F)cnc2C(C#N)c2ccccc2)cc1 (stereo not shown) [Example 9b]
35
